Biological target: T1, human GPC3-his tag protein (human, UniProt P51654 25-559, limits assumed)
T1 construct: recombinant soluble antigen used as analyte in all Biacore runs; also called recombinant GPC3 protein; rhGPC3-His; not shown: His tag
Assay: SPR Biacore 8K, mAb captured, affinity ranking
Measured endpoint: kon (M⁻¹ s⁻¹)
Give the number; M⁻¹ s⁻¹ is assumed, so skip it.

binder="52H5D3B8-6# chimeric mAb (antibody, V domains shown, CDR3 mutant of the 52H5D3B8 chimeric mAb (human IgG1); also called 52H5D3B8-6#-VH+VL) VH: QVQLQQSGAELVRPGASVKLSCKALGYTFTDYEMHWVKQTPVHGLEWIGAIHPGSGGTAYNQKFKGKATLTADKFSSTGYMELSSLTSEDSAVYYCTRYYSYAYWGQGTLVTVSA VL: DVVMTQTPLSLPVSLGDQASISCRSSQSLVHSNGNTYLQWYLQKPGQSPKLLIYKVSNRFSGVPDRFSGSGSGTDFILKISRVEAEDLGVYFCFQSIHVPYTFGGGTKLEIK" measured_endpoint=kon val=721000
binder="52H5D3B8-6#-VH3+VL2 (antibody, V domains shown, humanized) VH: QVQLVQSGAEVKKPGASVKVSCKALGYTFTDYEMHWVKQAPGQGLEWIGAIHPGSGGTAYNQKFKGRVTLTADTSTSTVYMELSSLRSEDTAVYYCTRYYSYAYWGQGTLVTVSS VL: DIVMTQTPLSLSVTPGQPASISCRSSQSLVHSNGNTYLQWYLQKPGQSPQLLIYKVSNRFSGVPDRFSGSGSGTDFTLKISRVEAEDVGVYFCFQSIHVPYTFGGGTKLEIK" measured_endpoint=kon val=664000

We now examine a further binder.
Reported kon of 52H5D3B8-6#-VH3+VL4 (antibody, V domains shown, humanized) VH: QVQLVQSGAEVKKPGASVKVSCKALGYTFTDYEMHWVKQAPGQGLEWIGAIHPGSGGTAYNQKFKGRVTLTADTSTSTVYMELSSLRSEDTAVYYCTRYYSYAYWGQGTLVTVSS VL: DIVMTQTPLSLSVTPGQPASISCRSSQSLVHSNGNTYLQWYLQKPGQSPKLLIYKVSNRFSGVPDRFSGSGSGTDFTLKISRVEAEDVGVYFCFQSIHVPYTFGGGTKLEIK : 711000
